# Tested Target: GST-Hu-p50 (Homo sapiens, UniProt P19838 7-356)
# Sequence (P19838 7-356): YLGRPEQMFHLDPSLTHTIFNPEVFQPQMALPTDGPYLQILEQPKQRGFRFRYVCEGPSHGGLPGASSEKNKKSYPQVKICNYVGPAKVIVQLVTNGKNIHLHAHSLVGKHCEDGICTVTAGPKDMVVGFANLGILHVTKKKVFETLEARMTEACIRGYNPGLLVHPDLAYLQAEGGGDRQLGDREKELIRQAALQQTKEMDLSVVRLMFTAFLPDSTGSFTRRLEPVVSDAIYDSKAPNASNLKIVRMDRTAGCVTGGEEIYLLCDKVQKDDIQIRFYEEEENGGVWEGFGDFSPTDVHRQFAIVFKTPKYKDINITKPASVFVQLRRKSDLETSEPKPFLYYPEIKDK
# Test Description: protein-binding microarray (PBM); PBM: ~300 nM protein, 6 mM HEPES pH 7.8, 80 mM KCl, 0.5 mM EDTA, 0.5 mM EGTA, 6% glycerol, 35 ng/ul poly-dIdC, 1% milk, 1 h, room temperature; Ap Aiptasia and Nv Nematostella (sea anemones) / Co Capsaspora / Aq Amphimedon (sponge) / Dm Drosophila / Hu human; RHD is the Rel homology domain; high values mean tight binding
# Settings: dsDNA, one strand shown
The threshold is 6 z-score. Values of binding signal beneath it are tagged Yes; values meeting or exceeding it are tagged No.

INSERT INTO assay_data (monomer_sequence, tested_target, group) VALUES
  ('CCGATTAACATCAGCGATTCCCCTGATGTTAATCGGGTCTTGATTCGCTTGACGCTGCTG', 'GST-Hu-p50 (Homo sapiens, UniProt P19838 7-356)', 'Yes'),
  ('CCGATTAACATCAGGGGGTTTCATGATGTTAATCGGGTCTTGATTCGCTTGACGCTGCTG', 'GST-Hu-p50 (Homo sapiens, UniProt P19838 7-356)', 'No'),
  ('CCGATTAACATCACTCATCCCCGTGATGTTAATCGGGTCTTGATTCGCTTGACGCTGCTG', 'GST-Hu-p50 (Homo sapiens, UniProt P19838 7-356)', 'Yes'),
  ('CCGATTAACATCAGGGGAATTCATGATGTTAATCGGGTCTTGATTCGCTTGACGCTGCTG', 'GST-Hu-p50 (Homo sapiens, UniProt P19838 7-356)', 'No'),
  ('CCGATTAACATCAGGGGGTTGACTGATGTTAATCGGGTCTTGATTCGCTTGACGCTGCTG', 'GST-Hu-p50 (Homo sapiens, UniProt P19838 7-356)', 'Yes'),
  ('CCGATTAACATCAGGGGATGAATTGATGTTAATCGGGTCTTGATTCGCTTGACGCTGCTG', 'GST-Hu-p50 (Homo sapiens, UniProt P19838 7-356)', 'Yes'),
  ('CCGATTAACATCAAAACACTCCCTGATGTTAATCGGGTCTTGATTCGCTTGACGCTGCTG', 'GST-Hu-p50 (Homo sapiens, UniProt P19838 7-356)', 'Yes'),
  ('CCGATTAACATCAAGATTCCCCCTGATGTTAATCGGGTCTTGATTCGCTTGACGCTGCTG', 'GST-Hu-p50 (Homo sapiens, UniProt P19838 7-356)', 'No'),
  ('CCGATTAACATCAATTTCCCACCTGATGTTAATCGGGTCTTGATTCGCTTGACGCTGCTG', 'GST-Hu-p50 (Homo sapiens, UniProt P19838 7-356)', 'Yes'),
  ('CCGATTAACATCACCGAACCCCCTGATGTTAATCGGGTCTTGATTCGCTTGACGCTGCTG', 'GST-Hu-p50 (Homo sapiens, UniProt P19838 7-356)', 'Yes'),
  ('CCGATTAACATCAGAAAACCCCCTGATGTTAATCGGGTCTTGATTCGCTTGACGCTGCTG', 'GST-Hu-p50 (Homo sapiens, UniProt P19838 7-356)', 'No'),
  ('CCGATTAACATCACCCCATCCCCTGATGTTAATCGGGTCTTGATTCGCTTGACGCTGCTG', 'GST-Hu-p50 (Homo sapiens, UniProt P19838 7-356)', 'Yes'),
  ('CCGATTAACATCACCCTCCCCCCTGATGTTAATCGGGTCTTGATTCGCTTGACGCTGCTG', 'GST-Hu-p50 (Homo sapiens, UniProt P19838 7-356)', 'Yes'),
  ('CCGATTAACATCAAATTTTCCCCTGATGTTAATCGGGTCTTGATTCGCTTGACGCTGCTG', 'GST-Hu-p50 (Homo sapiens, UniProt P19838 7-356)', 'No'),
  ('CCGATTAACATCAAGAACTTCCCTGATGTTAATCGGGTCTTGATTCGCTTGACGCTGCTG', 'GST-Hu-p50 (Homo sapiens, UniProt P19838 7-356)', 'Yes'),
  ('CCGATTAACATCAAATGCCCCCCTGATGTTAATCGGGTCTTGATTCGCTTGACGCTGCTG', 'GST-Hu-p50 (Homo sapiens, UniProt P19838 7-356)', 'Yes'),
  ('CCGATTAACATCACAAATTACCCTGATGTTAATCGGGTCTTGATTCGCTTGACGCTGCTG', 'GST-Hu-p50 (Homo sapiens, UniProt P19838 7-356)', 'Yes'),
  ('CCGATTAACATCAGAAACTCCCATGATGTTAATCGGGTCTTGATTCGCTTGACGCTGCTG', 'GST-Hu-p50 (Homo sapiens, UniProt P19838 7-356)', 'Yes'),
  ('CCGATTAACATCAAGAGTCCCCCTGATGTTAATCGGGTCTTGATTCGCTTGACGCTGCTG', 'GST-Hu-p50 (Homo sapiens, UniProt P19838 7-356)', 'Yes'),
  ('CCGATTAACATCAGGGACTTTTATGATGTTAATCGGGTCTTGATTCGCTTGACGCTGCTG', 'GST-Hu-p50 (Homo sapiens, UniProt P19838 7-356)', 'No'),
  ('CCGATTAACATCAAAAAATCACCTGATGTTAATCGGGTCTTGATTCGCTTGACGCTGCTG', 'GST-Hu-p50 (Homo sapiens, UniProt P19838 7-356)', 'Yes'),
  ('CCGATTAACATCAGAAAATACCCTGATGTTAATCGGGTCTTGATTCGCTTGACGCTGCTG', 'GST-Hu-p50 (Homo sapiens, UniProt P19838 7-356)', 'No'),
  ('CCGATTAACATCACAATCCCCCCTGATGTTAATCGGGTCTTGATTCGCTTGACGCTGCTG', 'GST-Hu-p50 (Homo sapiens, UniProt P19838 7-356)', 'No'),
  ('CCGATTAACATCAAAGTCCCCCCTGATGTTAATCGGGTCTTGATTCGCTTGACGCTGCTG', 'GST-Hu-p50 (Homo sapiens, UniProt P19838 7-356)', 'Yes');
